test system: T. cruzi-infected H9C2 cardiomyocytes, high-content imaging; experiment: intracellular T. cruzi amastigote inhibition, imaging, H9C2 host cardiomyocytes, host toxicity (AID 1159565); settings: measured here: amastigotes per cell;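 further: infected cells incubated 72 h after plating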
VALUE TYPE: IC50 (nM)
Numbers only here, please. The scale is nM.

Field: example entries. Status: answers known.
1. CCOc1ccccc1C(=O)Nc1nnc(-c2ccc3c(c2)OCO3)s1; 63
2. CCC(CC)C(=O)Nc1cccc(C(=O)Nc2nnc(C3CCCCC3)s2)c1; 16000

Query block: Hello, I am looking for reported IC50 with T. cruzi-infected H9C2 cardiomyocytes, high-content imaging for `Cc1cccc(N2CCCN(Cc3c[nH]c4ccccc34)CC2)n1` . Could you help?
Result block: 320

Query block: Hello, I am looking for reported IC50 with T. cruzi-infected H9C2 cardiomyocytes, high-content imaging for Cc1ccc(C)c(CN2C(=O)NC3(CCc4ccccc43)C2=O)c1 (stereo not drawn) . Could you help?
Result block: 7900

Query block: Hello, I am looking for reported IC50 with T. cruzi-infected H9C2 cardiomyocytes, high-content imaging for `COc1ccc(OC)c(S(=O)(=O)N(Cc2c(F)cccc2F)[C@@H]2CCN(C#N)C2)c1` . Could you help?
Result block: 6300

Query block: Hello, I am looking for reported IC50 with T. cruzi-infected H9C2 cardiomyocytes, high-content imaging for `CCOc1ccc(NC(=O)C=Cc2ccc(CC)o2)cc1` . Could you help?
Result block: 16000

Query block: Hello, I am looking for reported IC50 with T. cruzi-infected H9C2 cardiomyocytes, high-content imaging for `CCc1c(C)nc(-n2nc(C)cc2NC(=O)COc2ccccc2F)[nH]c1=O` . Could you help?
Result block: 160
